Assay: oral pharmacokinetic test
Assay type: in vivo, SD rats
Conditions: SD, plasma; rat, 10 mg/Kg PO, vehicle A (NMP:PEG400=5:95)
testReadout: AUC(0-t) (ng·h/mL)
The answer is to be given in ng·h/mL; state only the numeric part.

Cc1cn(-c2cc(NC(=O)c3cc(C#Cc4cnc5c(Nc6cnn(C)c6)cccn45)c(C)cc3F)cc(C(C)(C)C#N)c2)cn1 = 15900

Then this molecule:
Quickly give me recorded AUC(0-t) for Cc1cn(-c2cc(NC(=O)c3ccc(C)c(C#Cc4cnc5c(Nc6cnn(C)c6)cccn45)c3)cc(C(C)(C)C#N)c2)cn1 [Comparative Example 4, reference compound]
2960

* * *

The reader will find reported GI50 values listed item by item below.
Tested on: T315I-TCCS cells
Test: human CML cell proliferation inhibition
Format: cell-based
Conditions: 72 hours, Cell Counting Kit-8

Cc1cc(F)c(C(=O)Nc2ccc(CN3CCN(C)CC3)c(C(C)(C)C#N)c2)cc1C#Cc1cnc2c(Nc3cn[nH]c3)cccn12 = 100 nM
Cc1cc(F)c(C(=O)Nc2ccc(CN3CCN(S(C)(=O)=O)CC3)c(C(C)(C)C#N)c2)cc1C#Cc1cnc2c(Nc3cnn(C)c3)cccn12 = > 100 nM
Cc1cc(F)c(C(=O)Nc2cc(-c3ccncc3)cc(C(F)(F)F)c2)cc1C#Cc1cnc2c(Nc3cnn(C)c3)cccn12 = 100 nM
Cc1cc(F)c(C(=O)Nc2ccc(CN3CCN(CCO)CC3)c(C(F)(F)F)c2)cc1C#Cc1cnc2c(Nc3cnn(C)c3)cccn12 = < 10 nM
Cc1cc(F)c(C(=O)Nc2cc(N3CCC(N4CCN(C)CC4)CC3)cc(C(C)(C)C#N)c2)cc1C#Cc1cnc2c(Nc3cnn(C)c3)cccn12 = > 100 nM

Here is another compound to look at.
Given Cc1cc(F)c(C(=O)Nc2cc(Oc3ccncc3)cc(C(F)(F)F)c2)cc1C#Cc1cnc2c(Nc3cnn(C)c3)cccn12 , report its GI50 on T315I-TCCS cells.
< 10 nM

* * *

Each record here notes measured half-life.
Experiment: oral pharmacokinetic test
Type: in vivo, ICR mice
Conditions: ICR, mouse, plasma, 10 mg/kg, 10 mg/Kg PO, vehicle B (0.5% methyl cellulose)
Kindly answer with a numeric value in h, unit omitted.

Specify measured half-life for Cc1cn(-c2cc(NC(=O)c3cc(C#Cc4cnc5c(Nc6cnn(C)c6)cccn45)c(C)cc3F)cc(C(C)(C)C#N)c2)cn1 .
2.4

Let me know recorded half-life for Cc1cn(-c2cc(NC(=O)c3cc(C#Cc4cnc5c(Nc6cnn(C)c6)cccn45)c(C)cc3F)cc(C(F)(F)F)c2)cn1 , thanks.
2.1

* * *

The entries below come with measured GI50 values attached.
Tested on: T315I-TCCS cells
Experiment: human CML cell proliferation inhibition
Format: cell-based
Conditions: 72 hours, Cell Counting Kit-8

Below are worked cases with known answers.
Cc1cc(F)c(C(=O)Nc2cc(OCCCN(C)C)cc(C(F)(F)F)c2)cc1C#Cc1cnc2c(Nc3cnn(C)c3)cccn12 = 100 nM
Cc1cn(-c2cc(NC(=O)c3cc(C#Cc4cnc5c(Nc6cn[nH]c6)cccn45)c(C)cc3Cl)cc(C(C)(C)C#N)c2)cn1 = 100 nM
Cc1cn(-c2cc(NC(=O)c3cc(C#Cc4cnc5c(Nc6cnn(C)c6)cccn45)c(C)cc3F)cc(C(F)(F)F)c2)cn1 = 100 nM
Cc1cc(F)c(C(=O)Nc2ccc(CN3CCN(C)C(=O)C3)c(C(C)(C)C#N)c2)cc1C#Cc1cnc2c(Nc3cn[nH]c3)cccn12 = > 100 nM

Entry Cc1cn(-c2cc(NC(=O)c3ccc(C)c(C#Cc4cnc5c(Nc6cnn(C)c6)cccn45)c3F)cc(C(F)(F)F)c2)cn1 needs its GI50 filled in; supply it.
100 nM

Let me know recorded GI50 for Cc1cc(F)c(C(=O)Nc2cc(N(C)CCN(C)C)cc(C(F)(F)F)c2)cc1C#Cc1cnc2c(Nc3cnn(C)c3)cccn12 , thanks.
100 nM

* * *

System: TCCS cells
Experiment: human CML cell proliferation inhibition
Assay type: cell-based
Settings: 72 hours, Cell Counting Kit-8
testReadout: GI50

Cc1cc(F)c(C(=O)Nc2ccc(CN3CCN(CCO)CC3)c(C(F)(F)F)c2)cc1C#Cc1cnc2c(Nc3cn[nH]c3)cccn12 = < 10 nM
Cc1cc(F)c(C(=O)Nc2ccc(Cn3ccnc3)c(C(C)(C)C#N)c2)cc1C#Cc1cnc2c(Nc3cnn(C)c3)cccn12 = < 10 nM

Next up:
Query GI50 for Cc1cc(Cl)c(C(=O)Nc2cc(Oc3ccncc3)cc(C(F)(F)F)c2)cc1C#Cc1cnc2c(Nc3cnn(C)c3)cccn12
< 10 nM

* * *

Tested on: TCCS cells
Assay: human CML cell proliferation inhibition
Assay type: cell-based
Settings: 72 hours, Cell Counting Kit-8
testReadout: GI50

These recorded examples may help you get a feel for the data.
Cc1cn(-c2cc(NC(=O)c3cc(C#Cc4cnc5c(Nc6cn[nH]c6)cccn45)c(C)cc3F)cc(C(C)(C)C#N)c2)cn1 = < 0.01 µM
Cc1cc(F)c(C(=O)Nc2cc(OCCCN(C)C)cc(C(F)(F)F)c2)cc1C#Cc1cnc2c(Nc3cn[nH]c3)cccn12 = < 0.01 µM

Next molecule, GI50 to be filled in.
Output reported GI50 of the molecule Cc1cc(F)c(C(=O)Nc2cc(N(C)CCN(C)C)cc(C(F)(F)F)c2)cc1C#Cc1cnc2c(Nc3cnn(C)c3)cccn12 on TCCS cells.
< 0.01 µM

* * *

Tested on: TCCS cells
Experiment: human CML cell proliferation inhibition
Format: cell-based
Conditions: 72 hours, Cell Counting Kit-8
testReadout: GI50

Cc1cc(F)c(C(=O)Nc2cc(N3CCN(C)CC3)cc(C(C)(C)C#N)c2)cc1C#Cc1cnc2c(Nc3cnn(C)c3)cccn12 [Example 20] = < 10 nM
Cc1cc(F)c(C(=O)Nc2cc(-c3cccnc3)cc(C(F)(F)F)c2)cc1C#Cc1cnc2c(Nc3cnn(C)c3)cccn12 [Example 53] = < 10 nM
Cc1cc(F)c(C(=O)Nc2cc(CN3CCCN(C)CC3)cc(C(C)(C)C#N)c2)cc1C#Cc1cnc2c(Nc3cnn(C)c3)cccn12 [Example 30] = < 10 nM

Recall and state the measured GI50 for Cc1cc(F)c(C(=O)Nc2ccc(Oc3ccncc3)c(C(F)(F)F)c2)cc1C#Cc1cnc2c(Nc3cnn(C)c3)cccn12 [Example 65] .
< 10 nM

Retrieve GI50 measured for Cc1cc(F)c(C(=O)Nc2ccc(CN3CCN(C)C(=O)C3)c(C(F)(F)F)c2)cc1C#Cc1cnc2c(Nc3cn[nH]c3)cccn12 [Example 112] and print it.
< 10 nM

Identify measured GI50 associated with Cc1cc(F)c(C(=O)Nc2cc(N3CCN(C)C(=O)C3)cc(C(F)(F)F)c2)cc1C#Cc1cnc2c(Nc3cnn(C)c3)cccn12 [Example 49]
< 10 nM

* * *

half-life for assorted compounds
Assay: oral pharmacokinetic test
Format: in vivo, ICR mice
Conditions: ICR, mouse, plasma, 10 mg/kg, 10 mg/Kg PO, vehicle A (NMP:PEG400=5:95)
# number only, unit h dropped from output

Note down half-life recorded for Cc1cn(-c2cc(NC(=O)c3cc(C#Cc4cnc5c(Nc6cnn(C)c6)cccn45)c(C)cc3F)cc(C(C)(C)C#N)c2)cn1 [Example 1]
2.5

Recall and state the measured half-life for Cc1cn(-c2cc(NC(=O)c3ccc(C)c(C#Cc4cnc5c(Nc6cnn(C)c6)cccn45)c3)cc(C(C)(C)C#N)c2)cn1 [Comparative Example 4, reference compound] .
3.3

Give recorded half-life. Cc1cn(-c2cc(NC(=O)c3ccc(C)c(C#Cc4cnc5c(Nc6cnn(C)c6)cccn45)c3)cc(C(F)(F)F)c2)cn1 [Comparative Example 1, reference compound]
3.5

* * *

Tested on: KOPM28 cells
Experiment: human CML cell proliferation inhibition
Format: cell-based
Settings: 72 hours, Cell Counting Kit-8
testReadout: GI50

Illustrative cases are given below, each with its answer.
Cc1cc(F)c(C(=O)Nc2cc(OCCCN(C)C)cc(C(F)(F)F)c2)cc1C#Cc1cnc2c(Nc3cn[nH]c3)cccn12 = < 10 nM
Cc1cn(-c2cc(NC(=O)c3cc(F)c(C)c(C#Cc4cnc5c(Nc6cnn(C)c6)cccn45)c3)cc(C(C)(C)C#N)c2)cn1 = < 10 nM
Cc1cc(Cl)c(C(=O)Nc2cc(CN3CCN(CCO)CC3)cc(C(C)(C)C#N)c2)cc1C#Cc1cnc2c(Nc3cnn(C)c3)cccn12 = < 10 nM
Cc1cc(F)c(C(=O)Nc2cc(Cn3ccnc3)cc(C(F)(F)F)c2)cc1C#Cc1cnc2c(Nc3cnn(C)c3)cccn12 = < 10 nM

Assign GI50 to the following record: Cc1cc(F)c(C(=O)Nc2cc(-c3cccnc3)cc(C(F)(F)F)c2)cc1C#Cc1cnc2c(Nc3cnn(C)c3)cccn12
< 10 nM

Hello, please tell me recorded GI50 for this one: Cc1cc(F)c(C(=O)Nc2ccc(CN3CCCN(C)CC3)c(C(C)(C)C#N)c2)cc1C#Cc1cnc2c(Nc3cnn(C)c3)cccn12
< 10 nM

Indicate its recorded GI50; the compound in question is Cc1cc(F)c(C(=O)Nc2cc(CN3CCN(C)C(=O)C3)cc(C(C)(C)C#N)c2)cc1C#Cc1cnc2c(Nc3cn[nH]c3)cccn12
< 10 nM
